Hi there, I'd appreciate the recorded GFP response, % of DMSO for every entry that follows.
# Assay Explanation: modulators of CIT2-GFP expression in yeast, confirmation, S. cerevisiae, GFP fusion, cherry picks, mother/daughter gates (AID 2274)
# Condition Description: S. cerevisiae CIT2-GFP strain, flow cytometry, 3 h; measured here: daughter cell gate; at 10 µM; stronger effect = higher value
Respond with the bare value in %.

query: Give the measured GFP response, % of DMSO of `CSc1ccc(/C=C/C(=O)c2ccc(NC(C)=O)cc2)cc1` .
result: 90.2

query: Please report the recorded GFP response, % of DMSO for CC1CN(c2nc3ccccn3c(=O)c2/C=C(\C#N)C(N)=O)CC(C)O1 (stereo unspecified) .
result: 99.3

query: Would you mind telling me what GFP response, % of DMSO value was observed for `Cc1c(Br)cc(C(=O)O)c(C)c1C` ?
result: 95.6

query: Form field: reported GFP response, % of DMSO of CN1CCN(C(c2ccc(C(F)(F)F)cc2)c2ccc3cccnc3c2O)CC1 (stereo unspecified)
result: 95.6

query: Record request: GFP response, % of DMSO value, item `O=C1c2ccsc2SCCN1Cc1ccc(Cl)cc1Cl`
result: 90.2

query: Entry `Cc1ccc(C(=O)N/C(=C/c2ccco2)C(=O)N2CCOCC2)cc1` : reported GFP response, % of DMSO = ?
result: 97.4
